The measurements presented in this section are drawn from patent US20240294638A1.

- target.system: T1, recombinant human NKG2A/CD94 heterodimer (extracellular domains) (human, UniProt Q13241 32-179)
- T1 construct: extracellular domain; ECDs co-expressed in Expi293, purified by Ni-NTA and anti-Flag; also called HuNKG2A/huCD94; NKG2A/CD94 ECDs
- T1 sequence (chain, as listed by the source, chain 1 of 2): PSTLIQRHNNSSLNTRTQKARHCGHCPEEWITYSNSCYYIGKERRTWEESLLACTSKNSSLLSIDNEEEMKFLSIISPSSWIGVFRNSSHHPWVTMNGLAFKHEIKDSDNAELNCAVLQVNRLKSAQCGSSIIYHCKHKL
- T1 sequence (Q13241 32-179, chain 2 of 2): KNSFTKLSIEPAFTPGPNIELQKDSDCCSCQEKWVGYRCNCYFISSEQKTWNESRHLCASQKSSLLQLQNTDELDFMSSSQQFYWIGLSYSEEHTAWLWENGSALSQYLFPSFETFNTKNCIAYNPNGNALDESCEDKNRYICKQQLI
- test.description: SPR (IBIS MX96), mAb captured on anti-human IgG Fc, ECD heterodimer injected, 1:1 fit
quantity.name: Kd (nM)
API: value field is a number in nM; no unit string.

Prompt: Can you share its Kd? I mean this binder: antibody 23686 (antibody, human IgG1, kappa, L234A L235A, V domains shown, Fully human IgG1-LALA (L234A/L235A), kappa) VH: EVQLVESGGGLVKPGGSLRLSCAASGFTFSSYSMNWVRQAPGKGLEWVSSISSSSSYIYYADSVKGRFTISRDNAKNSLYLQMNSLRAEDTAVYYCARDEWGLLGFDSWGQGTLVTVSS VL: EIVLTQSPATLSLSPGERATLSCRASQSISNYLAWYQQKPGQAPRLLIYDASNRATGIPARFSGSGSGTDFTLTISSLEPEDFAVYYCQQRTDWPPWTFGQGTKVEIKR
Response: 0.72
